experiment: protein stability index of a GFP-peptide fusion (GPS, HEK-293T) (PSI 1-6); higher = more stable; details: treatment: DMSO; c terminus: a fixed tail appended;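 note: 24-mer peptide tiles fused after GFP, lentivirally expressed, FACS-sorted into six equal bins by GFP/DsRed ratio, decoded by Illumina sequencing, PSI is the read-weighted mean bin number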
propertyMeasured: protein stability index
The answer should be written as a number, with no unit following it.

Illustrative cases are given below, each with its answer.
sequenceChain	protein stability index
QILYESCPKYKFISCPTCRRETVL [RNF208]	2.15
MYSVEITVEKDKVTGETRVLSSTT [PALM]	2.93
MMKPQAETGEAARDPSLRPARTVL	4.18
MLQIVVGVRDSGSPPLHANTSLHV [PCDHGC5]	2.6
MAGNFWQSSHYLQWILDKQDLLKE [CCNC]	2.34

Would you mind telling me what protein stability index value was observed for PLVALDTDSDDDFDMSRYSSSGYS [FAM219A] ?
4.59

Next sequence up: DEDEVAAEEPNAAVPDEIPPLEGD [HSP90AB1]
5.49

Note, next up: LPSLVLARLVFVPLLLLCNIKPRR [SLC29A1]
2.79

Would you mind doing LTVVCAAGAEPLPRNGDQWHEIRQ [WEE1] as well?
2.55

Can you handle LERVRVSCTIIFLASIFQLAMWTT [TMEM175] next?
3.24

Similarly, RRLGNGVSDDLSSEEDGEARTQMI [PHTF1] ?
5.38

Thanks! And DKFVIVDCRYPYEYEGGHIKTAVN [CDC25B] ?
2.48

Same again, this time with ACNFEPHESFFSLFSDPRSTRLTR [ZER1]
2.86

Field entry: VAREYYSEADASHCIQQILESVNH [CAMK2D]
3.46

Now consider LQLFSSTLVGCWSDVVGRRSSLLA [MFSD9] .
2.59

Could you do the same for VELLLARKISVNAKDEDQWTALHF [RIPK4] , please?
2.91

Param item: HLNGHAMCQTKHSPWADGTPCGPA [ADAMTS4]
3.12

Same read-out for ELQNQLAACTRALESSEELLETAN [FSD1] ?
4.24

One more sequence: LPGPTRPVLGRRAVGGRLRLVPGG [HAGHL]
3.53

Please answer likewise for KWTACSRSCGGGVTSQERHCLQQR [ADAMTSL2]
2.75

Also, FGIDVKEVDPTGHSFVLVTSLGLT [MAGEA10] please.
2.43

// query: MWGQSLLPPVSTSFTTGGLRIPFP [TNXB]
2.3

Also, HMGTNVIVANTMPTHLSNGQMSTP [HNF4A] please.
3.6

And then LPIQTPGAFLRTCLLSSNSRSLLT [TLE6] , what is it?
2.06

And LSTDMVHAASDPSSSSGRLSEPDP [SMOC2] ?
5.29

// same read-out, input: LIYTVMLAFRSGSDNLLVILKRKW [SLC35F2]
2.3

// same read-out, input: TGEAGEELDLRLRLAQPSSPEVLT [RTN2]
4.9

Origin of the recorded values: the supplement of paper PMC10567573
